study target: recombinant His-tagged human OX40 extracellular domain (Homo sapiens, UniProt P43489)
Sequence (P43489 29-214): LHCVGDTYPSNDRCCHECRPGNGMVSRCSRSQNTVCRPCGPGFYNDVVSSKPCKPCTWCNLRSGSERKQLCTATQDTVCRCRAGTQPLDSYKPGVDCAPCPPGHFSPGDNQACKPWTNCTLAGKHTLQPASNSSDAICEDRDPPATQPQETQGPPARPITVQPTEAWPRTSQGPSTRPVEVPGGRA
Entries and their Kd values follow.

| binder | measurement unit | Kd |
| --- | --- | --- |
| tOX40.39 (S-CL-LN-1) (antibody, V domains shown) VH: EVQLVESGGGLVQPGGSLRLSCAASGFTFSNYAMTWVRQAPGKGLEWVSTISGSGGSTYYADSVKGRFTISRDNSKNTLYLQMNSLRAEDTAVYYCAKADCGDNCYSFFDYWGQGTLVTVSS VL: DIQMTQSPSSLSASVGDRVTITCRASQGISNWLAWYQQKPEKAPKSLIYAASSLQSGVPSRFSGSGSGTDFTLTISSLQPEDFATYYCQQYNSYPPTFGRGTKVEIK | nM | 90 |
| tOX40.40 (S-CL-LN-7) (antibody, V domains shown) VH: QVQLVESGGDVVQPGMSLRLSCAASGFTFSDYGMHWVRQAPGKGLEWVAVIWYDGSNKYYEDSVKGRFTISRDNSKNTLYLQMNSLRAEDTAVYYCTRAGFGESGYGMDVWGQGTTVTVSS VL: DIQMTQSPSSLSASVGDRVTITCRASQGISNYLAWYQQKPGKVPKLLIYAASTLQSGVPSRFSGSGSGTDFTLTISSLQPEDVATYYCQKYHSAPWTFGQGTKVEIK | nM | 151 |
| tOX40.19 (S-CL-LN-4) (antibody, V domains shown) VH: QVQLVESGGGVVQPGRSLRLSCAASGFTFSTYGMHWVRQAPGKGLEWVAVIWYDGSNKYYADSVKGRFTISRDNSKNTLYLQMNSLRAEDTAVYYCARTHYDILTGPNWFDPWGQGTLVTVSS VL: DIQMTQSPSSLSASVGDRVTITCRASQDIRNDLGWYQQKPGKAPKRLIYAASSLQSGVPSRFSGSGSGTEFTLTISSLQPEDFATYYCLQHNSYPFTFGPGTKVDIK | nM | 7.7 |
| tOX40.23 (S-CL-LN-8) (antibody, V domains shown) VH: QVQLVESGGGVVQPGRSLRLSCAASGFTFSNYGMHWVRQAPGKGLEWVAVIWYDGSKKYYADSVKGRFTISRDNSKNTLYLQMNSLRAEDTAVYYCARAGFGESGYGMDVWGQGTTVTVSS VL: DIQMTQSPSSLSASVGDRVTFTCRASQGINNYLAWYQQKPGKVPKLLIYAASTLQSGVPSRFSGSGSGTDFTLTISSLQPEDVATYYCQKYYSAPWTFGQGTKVEVK | nM | 5.2 |
